test: Antiproliferative activity against human SMMC7721 cells assessed as cell growth inhibition after 48 hrs by MTT assay; conditions: SMMC-7721, 48 h
Mark yes (1) for IC50 under 600 nM, no (0) if at or over.

{"compound-structure-string": "Cc1cccc(C)c1NC(=O)Nc1cccc(-c2cccc3[nH]nc(N)c23)c1", "class-label": "no (0)"}
{"compound-structure-string": "Nc1n[nH]c2cccc(-c3cccc(NC(=O)Nc4ccc(F)c(F)c4)c3)c12", "class-label": "no (0)"}
{"compound-structure-string": "COc1ccc(C(=O)OCCN(C(C)C)C(C)C)cc1NC(=O)Nc1cc(-c2ccc3[nH]ccc3c2)ccc1OC(F)(F)F", "class-label": "yes (1)"}
{"compound-structure-string": "Nc1n[nH]c2cccc(-c3cccc(NC(=O)Nc4cccc(C(F)(F)F)c4)c3)c12", "class-label": "no (0)"}
{"compound-structure-string": "COc1ccc(-c2ccc(OC(F)(F)F)c(NC(=O)Nc3cc(C(=O)OCCN(C)C)ccc3OC)c2)cn1", "class-label": "no (0)"}

Input: Is 600 nM strictly greater than the compound's reported IC50? compound: "Nc1n[nH]c2cccc(-c3cccc(NC(=O)Nc4nccs4)c3)c12"
Output: yes (1)

Input: Is 600 nM strictly greater than the compound's reported IC50? compound: "COc1ccc(C(=O)OCCN(C(C)C)C(C)C)cc1NC(=O)Nc1cc(-c2cncnc2)ccc1OC(F)(F)F"
Output: no (0)

Input: Is 600 nM strictly greater than the compound's reported IC50? compound: "Cc1ccc(NC(=O)Nc2cccc(-c3cccc4[nH]nc(N)c34)c2)cc1Cl"
Output: yes (1)

* * *

assay: Antiproliferative activity against human SMMC7721 cells assessed as cell growth inhibition after 48 hrs by MTT assay; settings: SMMC-7721, 48 h
readout-kind: IC50 (nM)
A number alone suffices; assume nM.

Recorded IC50, per entry:
{"compound-structure-string": "COc1ccc(C(=O)OCCN(C)C)cc1NC(=O)Nc1cc(-c2cccnc2)cc(C(F)(F)F)c1", "unit-symbol": "nM", "measured": 860}
{"compound-structure-string": "COc1ccc(C(=O)OCCN(C)C)cc1NC(=O)Nc1cc(-c2cncnc2)ccc1OC(F)(F)F", "unit-symbol": "nM", "measured": 6150}

# ---- query compound ----
Reported IC50 for "COc1ccc(C(=O)OCCN2CCOCC2)cc1NC(=O)Nc1cc(-c2cn[nH]c2)ccc1OC(F)(F)F" was 2550

* * *

molecular target: Vascular endothelial growth factor receptor 2 (Homo sapiens)
Known IC50 of a selection of compounds

Recorded IC50, per entry:
{"compound-structure-string": "Cc1cccc(C)c1NC(=O)Nc1cccc(-c2cccc3[nH]nc(N)c23)c1", "IC50": "> 0.5 µM"}
{"compound-structure-string": "COc1ccc(C(=O)OCCN(C)C)cc1NC(=O)Nc1cc(-c2cncnc2)cc(C(F)(F)F)c1", "IC50": "> 500 µM"}

# ---- query compound ----
Reported IC50 for "Nc1n[nH]c2cccc(-c3cccc(NC(=O)Nc4ccc(F)c(F)c4)c3)c12" was > 0.5 µM

* * *

assay: Antiproliferative activity against human SMMC7721 cells assessed as cell growth inhibition after 48 hrs by MTT assay; conditions: SMMC-7721, 48 h
readout-kind: IC50 (nM)
A number alone suffices; assume nM.

{"compound": "Nc1n[nH]c2cccc(-c3cccc(NC(=O)Nc4cc(C(F)(F)F)cc(C(F)(F)F)c4)c3)c12", "measured": 3540}
{"compound": "Nc1n[nH]c2cccc(-c3cccc(NC(=O)Nc4ccc(Cl)cc4Cl)c3)c12", "measured": 1900}
{"compound": "COc1ccc(C(=O)OCCN(C(C)C)C(C)C)cc1NC(=O)Nc1cc(-c2ccc3[nH]ccc3c2)cc(C(F)(F)F)c1", "measured": 410}
{"compound": "Nc1n[nH]c2cccc(-c3cccc(NC(=O)Nc4ccccc4F)c3)c12", "measured": 2360}
{"compound": "Nc1n[nH]c2cccc(-c3cccc(NC(=O)Nc4cccc(F)c4)c3)c12", "measured": 1240}

Reported IC50 for "CCN(CC)CCOC(=O)c1ccc(OC)c(NC(=O)Nc2cc(-c3ccc4[nH]ccc4c3)ccc2OC(F)(F)F)c1" was 570

Reported IC50 for "COc1ccc(C(=O)OCCN2CCOCC2)cc1NC(=O)Nc1cc(-c2ccc3[nH]ccc3c2)cc(C(F)(F)F)c1" was 1770

Reported IC50 for CNC(=O)c1cc(Oc2ccc(NC(=O)Nc3ccc(Cl)c(C(F)(F)F)c3)cc2)ccn1 [SORAFENIB] was 650

* * *

Known IC50 of a selection of molecules
assay: Antiproliferative activity against human SMMC7721 cells assessed as cell growth inhibition after 48 hrs by MTT assay; details: SMMC-7721, 48 h
A number alone suffices; assume µM.

{"compound-structure-string": "Nc1n[nH]c2cccc(-c3cccc(NC(=O)Nc4ccc(Cl)c(C(F)(F)F)c4)c3)c12", "unit-symbol": "µM", "measured": 1.15}
{"compound-structure-string": "COc1cccc(NC(=O)Nc2cccc(-c3cccc4[nH]nc(N)c34)c2)c1", "unit-symbol": "µM", "measured": 2.86}
{"compound-structure-string": "CCN(CC)CCOC(=O)c1ccc(OC)c(NC(=O)Nc2cc(-c3ccc(OC)nc3)ccc2OC(F)(F)F)c1", "unit-symbol": "µM", "measured": 0.64}
{"compound-structure-string": "COc1ccc(C(=O)OCCN(C)C)cc1NC(=O)Nc1cc(-c2cccnc2)ccc1OC(F)(F)F", "unit-symbol": "µM", "measured": 1.38}
{"compound-structure-string": "Cc1ccnc(NC(=O)Nc2ccc(-c3cccc4[nH]nc(N)c34)cc2)c1", "unit-symbol": "µM", "measured": 0.43}
{"compound-structure-string": "COc1ccc(C(=O)OCCN(C(C)C)C(C)C)cc1NC(=O)Nc1cc(-c2cccnc2)cc(C(F)(F)F)c1", "unit-symbol": "µM", "measured": 0.73}
{"compound-structure-string": "COc1ccc(C(=O)OCCN2CCOCC2)cc1NC(=O)Nc1cc(-c2cncnc2)ccc1OC(F)(F)F", "unit-symbol": "µM", "measured": 10.8}
{"compound-structure-string": "CC(C)c1cccc(NC(=O)Nc2cccc(-c3cccc4[nH]nc(N)c34)c2)c1", "unit-symbol": "µM", "measured": 0.28}

Reported IC50 for "COc1ccc(C(=O)OCCN(C)C)cc1NC(=O)Nc1cc(-c2cncnc2)cc(C(F)(F)F)c1" was 1.39

Reported IC50 for "Cc1ccc(NC(=O)Nc2cccc(-c3cccc4[nH]nc(N)c34)c2)cc1" was 4.45

Reported IC50 for "COc1ccc(C(=O)OCCN(C)C)cc1NC(=O)Nc1cc(-c2ccc3[nH]ccc3c2)ccc1OC(F)(F)F" was 1.76

Reported IC50 for "CCN(CC)CCOC(=O)c1ccc(OC)c(NC(=O)Nc2cc(-c3cncnc3)ccc2OC(F)(F)F)c1" was 3.43

Reported IC50 for "Nc1n[nH]c2cccc(-c3cccc(NC(=O)Nc4cccc(Cl)c4)c3)c12" was 1.83

Reported IC50 for "Nc1n[nH]c2cccc(-c3ccc(NC(=O)Nc4ccc5c(c4)OCO5)cc3)c12" was 0.53

Reported IC50 for "COc1ccc(C(=O)OCCN2CCOCC2)cc1NC(=O)Nc1cc(-c2cccnc2)cc(C(F)(F)F)c1" was 11.1

Reported IC50 for "COc1ccc(C(=O)OCCN(C(C)C)C(C)C)cc1NC(=O)Nc1cc(-c2cn[nH]c2)ccc1OC(F)(F)F" was 1.23

* * *

Known pIC50 of a selection of molecules
target: Vascular endothelial growth factor receptor 2 (Homo sapiens, UniProt P35968)
Sequence (P35968 whole entry): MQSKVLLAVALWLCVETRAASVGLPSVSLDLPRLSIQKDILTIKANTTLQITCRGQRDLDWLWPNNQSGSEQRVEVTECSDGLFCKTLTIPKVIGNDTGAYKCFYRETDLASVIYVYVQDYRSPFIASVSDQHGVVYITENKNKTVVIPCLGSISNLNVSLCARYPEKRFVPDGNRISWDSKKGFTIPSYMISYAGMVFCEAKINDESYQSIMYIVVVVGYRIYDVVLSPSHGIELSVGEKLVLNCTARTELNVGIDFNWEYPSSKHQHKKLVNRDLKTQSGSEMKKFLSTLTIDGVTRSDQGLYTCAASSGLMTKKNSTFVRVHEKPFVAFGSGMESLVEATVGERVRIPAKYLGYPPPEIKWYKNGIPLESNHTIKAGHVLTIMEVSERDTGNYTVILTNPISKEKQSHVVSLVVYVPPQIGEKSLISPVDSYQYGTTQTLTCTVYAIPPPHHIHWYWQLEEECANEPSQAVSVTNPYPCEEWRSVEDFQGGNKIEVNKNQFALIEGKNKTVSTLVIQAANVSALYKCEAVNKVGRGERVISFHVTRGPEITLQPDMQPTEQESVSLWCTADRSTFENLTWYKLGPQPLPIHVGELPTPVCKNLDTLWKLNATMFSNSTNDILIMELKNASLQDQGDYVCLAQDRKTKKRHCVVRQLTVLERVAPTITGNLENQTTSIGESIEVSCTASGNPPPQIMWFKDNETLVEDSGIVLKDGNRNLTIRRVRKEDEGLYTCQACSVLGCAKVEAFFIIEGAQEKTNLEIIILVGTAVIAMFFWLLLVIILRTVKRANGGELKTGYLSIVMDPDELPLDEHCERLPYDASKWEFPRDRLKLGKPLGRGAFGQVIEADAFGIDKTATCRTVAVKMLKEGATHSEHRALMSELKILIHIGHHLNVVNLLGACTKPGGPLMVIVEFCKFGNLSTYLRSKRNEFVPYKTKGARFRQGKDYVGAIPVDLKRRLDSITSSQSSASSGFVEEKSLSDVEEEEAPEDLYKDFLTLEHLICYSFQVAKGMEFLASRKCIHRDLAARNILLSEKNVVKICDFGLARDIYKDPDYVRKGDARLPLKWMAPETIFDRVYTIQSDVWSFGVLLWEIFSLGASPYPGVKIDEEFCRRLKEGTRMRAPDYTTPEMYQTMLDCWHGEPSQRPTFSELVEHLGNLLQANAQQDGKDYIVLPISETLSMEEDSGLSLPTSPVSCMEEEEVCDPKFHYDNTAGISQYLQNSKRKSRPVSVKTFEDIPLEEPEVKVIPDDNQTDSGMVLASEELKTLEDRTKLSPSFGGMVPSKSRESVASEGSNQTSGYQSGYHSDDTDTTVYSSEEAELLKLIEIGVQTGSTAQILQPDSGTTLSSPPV
pIC50: −log10 of the molar value.

{"compound-structure-string": "CCN(CC)CCOC(=O)c1ccc(OC)c(NC(=O)Nc2cc(-c3cncnc3)ccc2OC(F)(F)F)c1", "measured": "< 3.30"}
{"compound-structure-string": "COc1ccc(C(=O)OCCN(C(C)C)C(C)C)cc1NC(=O)Nc1cc(-c2cncnc2)ccc1OC(F)(F)F", "measured": "< 3.30"}
{"compound-structure-string": "COc1ccc(C(=O)OCCN(C(C)C)C(C)C)cc1NC(=O)Nc1cc(-c2cn[nH]c2)ccc1OC(F)(F)F", "measured": "< 3.30"}
{"compound-structure-string": "COc1ccc(C(=O)OCCN(C(C)C)C(C)C)cc1NC(=O)Nc1cc(-c2ccc3[nH]ccc3c2)ccc1OC(F)(F)F", "measured": "< 3.30"}

Reported pIC50 for "COc1ccc(C(=O)OCCN(C(C)C)C(C)C)cc1NC(=O)Nc1cc(-c2cnn(C)c2)ccc1OC(F)(F)F" was < 3.30

Reported pIC50 for "Cc1ccnc(NC(=O)Nc2ccc(-c3cccc4[nH]nc(N)c34)cc2)c1" was < 6.30

* * *

experiment: Antiproliferative activity against human SMMC7721 cells assessed as cell growth inhibition after 48 hrs by MTT assay; conditions: SMMC-7721, 48 h
readout-kind: IC50

Recorded IC50, per entry:
{"compound-structure-string": "Nc1n[nH]c2cccc(-c3cccc(NC(=O)Nc4ccccc4Cl)c3)c12", "IC50": "> 500 µM"}
{"compound-structure-string": "Nc1n[nH]c2cccc(-c3cccc(NC(=O)Nc4ccc(F)cc4)c3)c12", "IC50": "> 500 µM"}

# ---- query molecule ----
Reported IC50 for "COc1ccc(C(=O)OCCN(C(C)C)C(C)C)cc1NC(=O)Nc1cc(-c2cnn(C)c2)ccc1OC(F)(F)F" was > 500 µM

Source listed as ChEMBL document CHEMBL3632507.
